tested on: NLRP3 (Homo sapiens, UniProt Q96P20)
Sequence (Q96P20 whole entry): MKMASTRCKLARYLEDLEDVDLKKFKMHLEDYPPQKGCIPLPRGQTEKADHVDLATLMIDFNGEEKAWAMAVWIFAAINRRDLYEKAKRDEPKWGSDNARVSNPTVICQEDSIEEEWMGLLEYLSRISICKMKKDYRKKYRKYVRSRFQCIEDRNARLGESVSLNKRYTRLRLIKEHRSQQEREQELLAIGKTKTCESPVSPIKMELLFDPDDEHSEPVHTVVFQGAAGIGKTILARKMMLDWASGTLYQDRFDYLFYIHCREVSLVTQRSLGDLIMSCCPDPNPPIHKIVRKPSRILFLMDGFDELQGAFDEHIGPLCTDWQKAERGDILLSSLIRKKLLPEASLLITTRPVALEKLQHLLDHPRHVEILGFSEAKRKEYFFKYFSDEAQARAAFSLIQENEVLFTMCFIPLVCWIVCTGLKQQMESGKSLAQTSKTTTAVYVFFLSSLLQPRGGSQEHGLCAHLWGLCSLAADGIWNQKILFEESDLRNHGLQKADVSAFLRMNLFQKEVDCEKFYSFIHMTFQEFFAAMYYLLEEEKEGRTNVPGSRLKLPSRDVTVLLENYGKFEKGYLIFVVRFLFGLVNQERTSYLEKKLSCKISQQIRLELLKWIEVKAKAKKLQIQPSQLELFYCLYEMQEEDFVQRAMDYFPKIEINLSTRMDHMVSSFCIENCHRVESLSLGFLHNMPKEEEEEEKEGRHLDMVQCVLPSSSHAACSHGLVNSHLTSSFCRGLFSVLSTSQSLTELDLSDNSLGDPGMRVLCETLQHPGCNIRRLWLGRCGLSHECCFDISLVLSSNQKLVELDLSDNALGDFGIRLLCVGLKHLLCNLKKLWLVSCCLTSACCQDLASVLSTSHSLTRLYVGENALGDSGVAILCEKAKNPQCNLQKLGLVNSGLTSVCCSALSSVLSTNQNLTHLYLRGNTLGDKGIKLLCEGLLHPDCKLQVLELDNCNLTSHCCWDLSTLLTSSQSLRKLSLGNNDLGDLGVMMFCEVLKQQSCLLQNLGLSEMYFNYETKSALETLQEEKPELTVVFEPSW
assay procedure: THP-1 cells pyroptosis assay
Format: cell-based
Parameters: Seed THP-1 cells (25,000 cells/well) containing 1.0 μg/ml LPS; host or cells: THP-1 cells, LPS-primed, nigericin-stimulated
particulars: THP-1 cells, 1.0 μg/ml LPS, compound 3 hrs, nigericin 5 μM 1 hr, resazurin readout; read-out: THP IC50
pIC50: −log10 of the molar value. Structures can show the parent of a compound that is named as a salt.
Entries and their pIC50

Worked cases, answers included:
Prompt: Need pIC50, item `CN(C)CCn1ccc(S(=O)(=O)NC(=O)Nc2c(-c3cccnc3)cc(F)c3c2CCC3)n1`
Completion: > 6.19

Prompt: I'd like to know its pIC50. The molecule in question is `CC(C)NC(=O)c1cc(S(=O)(=O)NC(=O)Nc2c3c(cc4c2CCC4)CCC3)nn1C`
Completion: > 5.00

Prompt: Can you look up the measured pIC50 of COc1cc(-c2ccc3c(c2NC(=O)NS(=O)(=O)c2ccn(C(C)(C)C#N)n2)CCC3)ccn1 [Example 195, sodium salt] for me?
Completion: > 7.40

Prompt: Recorded pIC50 of `CCN(C)C(=O)c1cc(S(=O)(=O)NC(=O)Nc2c3c(cc4c2CCC4)CCC3)nn1C` , please.
Completion: > 6.80

Prompt: Reported pIC50 for CN(C)C(=O)Cn1ccc(S(=O)(=O)NC(=O)Nc2c3c(cc4c2CCC4)CCC3)n1 [Example 1, sodium salt] : what is it?
Completion: > 6.19

Prompt: Entry under review: `O=C(Nc1c2c(cc3c1CCC3)CCC2)NS(=O)(=O)c1ccn(Cc2ncccn2)n1` . Reported pIC50?
Completion: > 5.59

Prompt: Quick one: pIC50 for COc1cc(-c2ccc3c(c2NC(=O)NS(=O)(=O)c2ccn(C4CCN(C)C4)n2)CCC3)ccn1 (stereo not shown) [Example 193, sodium salt] ?
Completion: > 7.40

Prompt: Need pIC50 of `CN1CCC[C@@H]1Cn1ccc(S(=O)(=O)NC(=O)Nc2c3c(cc4c2CCC4)CCC3)n1` , thanks.
Completion: > 6.19

Attention now shifts to the item below.
Prompt: For the molecule CN(C)CC(C)(C)n1ccc(S(=O)(=O)NC(=O)Nc2c(-c3ccnc(OC4CC4)c3)ccc3c2CCO3)n1 [Example 192, sodium salt] , what pIC50 is on record?
Completion: > 6.80

###

assay procedure: Pharmacokinetic parameters in male Sprague Dawley rats (intravenous and oral administration)
Format: in vivo
particulars: male, Sprague Dawley; oral administration, rat plasma; dose per compound (mg/kg)
readout: CL/F (mL/min/kg)
I only need the number, in mL/min/kg, no unit after it.

Prompt: Any idea what its CL/F is? The compound is CC(c1cc(S(=O)(=O)NC(=O)Nc2c3c(cc4c2CCC4)CCC3)nn1C)N(C)C (single isomer, unassigned; enantiomer 2)
Completion: 6

Prompt: Could you share which CL/F value was measured for `CN(C)CC(C)(C)n1ccc(S(=O)(=O)NC(=O)Nc2c3c(cc4c2CCC4)CCC3)n1` ?
Completion: 6.1

***
Prompt: I'd like to know its CL/F. The compound in question is `CN(C)CCn1ccc(S(=O)(=O)NC(=O)Nc2c3c(cc4c2CCC4)CCC3)n1`
Completion: 5

###

tested on: NLRP3 (Homo sapiens, UniProt Q96P20)
assay procedure: THP-1 cells pyroptosis assay
Type: cell-based
Parameters: Seed THP-1 cells (25,000 cells/well) containing 1.0 μg/ml LPS; host or cells: THP-1 cells, LPS-primed, nigericin-stimulated
particulars: THP-1 cells, 1.0 μg/ml LPS, compound 3 hrs, nigericin 5 μM 1 hr, resazurin readout; read-out: THP IC50
Structures can show the parent of a compound that is named as a salt.
readout: IC50

Below, 3 compounds whose answers are already recorded.
Prompt: Kindly state the measured IC50 obtained for `CN(C)CCn1ncc(S(=O)(=O)NC(=O)Nc2c3c(cc4c2CCC4)CCC3)n1` with NLRP3 (Homo sapiens, UniProt Q96P20).
Completion: < 640 nM

Prompt: GET /values?readout=IC50&system=NLRP3 (Homo sapiens, UniProt Q96P20)&item= `CN(C)CCn1cc(S(=O)(=O)NC(=O)Nc2c3c(cc4c2CCC4)CCC3)cn1`
Completion: < 2560 nM

Prompt: // fetch NLRP3 (Homo sapiens, UniProt Q96P20) IC50 for `CN(C)CC(C)(C)n1ccc(S(=O)(=O)NC(=O)Nc2c(-c3cccnc3)ccc3c2CCC3)n1`
Completion: < 640 nM

Read the next record carefully.
Prompt: Item: Cn1nc(S(=O)(=O)NC(=O)Nc2c3c(cc4c2CCC4)CCC3)cc1C(=O)NCCO [Example 174, ammonium salt] Test system: NLRP3 (Homo sapiens, UniProt Q96P20) Read-out: IC50 Value: ?
Completion: < 10000 nM

###

tested on: NLRP3 (Homo sapiens, UniProt Q96P20)
assay procedure: THP-1 cells pyroptosis assay
Format: cell-based
Set-up: Seed THP-1 cells (25,000 cells/well) containing 1.0 μg/ml LPS; host or cells: THP-1 cells, LPS-primed, nigericin-stimulated
particulars: THP-1 cells, 1.0 μg/ml LPS, compound 3 hrs, nigericin 5 μM 1 hr, resazurin readout; read-out: THP IC50
Where a name gives a salt, the structure may show the parent alone.
IC50 by entry:

Example entries begin here.
Prompt: Could you share which IC50 value was measured for CCN(C)C(=O)c1cc(S(=O)(=O)NC(=O)Nc2c(C(C)C)cc(F)cc2C(C)C)nn1C [Example 149, sodium salt] ?
Completion: < 0.64 µM

Prompt: I would be grateful if you could share the reported IC50 for `CNC(=O)c1cc(S(=O)(=O)NC(=O)Nc2c(C(C)C)cccc2C(C)C)nn1C` .
Completion: < 0.64 µM

---
Prompt: Recorded IC50 of `CC(C)c1cccc(C(C)C)c1NC(=O)NS(=O)(=O)c1cc(C(=O)N(C)C2CC2)n(C)n1` , please.
Completion: < 0.16 µM

Prompt: Consider the molecule shown here: CC(C)c1cccc(C(C)C)c1NC(=O)NS(=O)(=O)c1cc(C(=O)N2CC(F)C2)n(C)n1 [Example 139, sodium salt] What is its recorded IC50?
Completion: < 2.56 µM

Prompt: Need IC50, item `Cn1nc(S(=O)(=O)NC(=O)Nc2c3c(cc4c2CCC4)CCC3)cc1C(=O)N1CCC1`
Completion: < 0.16 µM

Prompt: Requested read-out: IC50. Entry: `CN(C)CCCn1ccc(S(=O)(=O)NC(=O)Nc2c3c(cc4c2CCC4)CCC3)n1`
Completion: < 2.56 µM

Prompt: I would be grateful if you could share the reported IC50 for CN(C)C(=O)c1cc(S(=O)(=O)NC(=O)Nc2c3c(cc4c2CCC4)CCC3)nn1C [Example 169, sodium salt] .
Completion: < 0.16 µM

###

tested on: NLRP3 (Homo sapiens, UniProt Q96P20)
assay procedure: Human whole blood IL1β release assay
Type: cell-based
Design: Human whole blood in Li-heparin tubes was obtained from healthy donors; from tissue; host or cells: human whole blood from healthy donors, LPS-primed, nigericin-stimulated
particulars: human whole blood, 1 μg/ml LPS, compound 3 hrs, nigericin 10 μM 1 hr, IL-1β AlphaLisa; read-out: HWB IC50
Where a name gives a salt, the structure may show the parent alone.
Recorded IC50 values for a group of molecules are listed next.

The examples below pair each entry with its known result.
Prompt: Which IC50 is reported for this molecule? CC(C)c1cccc(C(C)C)c1NC(=O)NS(=O)(=O)c1cc(C(=O)N2CCC2)n(C)n1 [Example 151]
Completion: < 400 nM

Prompt: # get_value(readout='IC50', item= CN(C)CCn1ccc(S(=O)(=O)NC(=O)Nc2c3c(cc4c2CCC4)CC=C3)n1 [Example 181, potassium salt] )
Completion: < 800 nM

Prompt: Requested field: IC50. Item: CNC(=O)Cn1ccc(S(=O)(=O)NC(=O)Nc2c3c(cc4c2CCC4)CCC3)n1 [Example 2]
Completion: < 3200 nM

Prompt: Could you share which IC50 value was measured for CN(C)Cc1c(S(=O)(=O)NC(=O)Nc2c3c(cc4c2CCC4)CCC3)ncn1C [Example 171] ?
Completion: < 1600 nM

Prompt: State the recorded IC50 for this entry: CNC(=O)c1cc(S(=O)(=O)NC(=O)Nc2c(C(C)C)cc(Cl)cc2C(C)C)nn1C [Example 132]
Completion: < 3200 nM

Prompt: Entry under review: CN(CCO)C(=O)c1cc(S(=O)(=O)NC(=O)Nc2c3c(cc4c2CCC4)CCC3)nn1C [Example 176, ammonium salt] . Reported IC50?
Completion: < 400 nM

# ---- query molecule ----
Prompt: Which IC50 is listed for COc1cc(-c2ccc3c(c2NC(=O)NS(=O)(=O)c2ccn(C4CCN(C)C4)n2)CCC3)ccn1 (stereo not shown) [Example 193, sodium salt] ?
Completion: < 400 nM
